- TARGET UNDER TEST: JAK1 (Homo sapiens (Human))
- Sequence (P23458 whole entry): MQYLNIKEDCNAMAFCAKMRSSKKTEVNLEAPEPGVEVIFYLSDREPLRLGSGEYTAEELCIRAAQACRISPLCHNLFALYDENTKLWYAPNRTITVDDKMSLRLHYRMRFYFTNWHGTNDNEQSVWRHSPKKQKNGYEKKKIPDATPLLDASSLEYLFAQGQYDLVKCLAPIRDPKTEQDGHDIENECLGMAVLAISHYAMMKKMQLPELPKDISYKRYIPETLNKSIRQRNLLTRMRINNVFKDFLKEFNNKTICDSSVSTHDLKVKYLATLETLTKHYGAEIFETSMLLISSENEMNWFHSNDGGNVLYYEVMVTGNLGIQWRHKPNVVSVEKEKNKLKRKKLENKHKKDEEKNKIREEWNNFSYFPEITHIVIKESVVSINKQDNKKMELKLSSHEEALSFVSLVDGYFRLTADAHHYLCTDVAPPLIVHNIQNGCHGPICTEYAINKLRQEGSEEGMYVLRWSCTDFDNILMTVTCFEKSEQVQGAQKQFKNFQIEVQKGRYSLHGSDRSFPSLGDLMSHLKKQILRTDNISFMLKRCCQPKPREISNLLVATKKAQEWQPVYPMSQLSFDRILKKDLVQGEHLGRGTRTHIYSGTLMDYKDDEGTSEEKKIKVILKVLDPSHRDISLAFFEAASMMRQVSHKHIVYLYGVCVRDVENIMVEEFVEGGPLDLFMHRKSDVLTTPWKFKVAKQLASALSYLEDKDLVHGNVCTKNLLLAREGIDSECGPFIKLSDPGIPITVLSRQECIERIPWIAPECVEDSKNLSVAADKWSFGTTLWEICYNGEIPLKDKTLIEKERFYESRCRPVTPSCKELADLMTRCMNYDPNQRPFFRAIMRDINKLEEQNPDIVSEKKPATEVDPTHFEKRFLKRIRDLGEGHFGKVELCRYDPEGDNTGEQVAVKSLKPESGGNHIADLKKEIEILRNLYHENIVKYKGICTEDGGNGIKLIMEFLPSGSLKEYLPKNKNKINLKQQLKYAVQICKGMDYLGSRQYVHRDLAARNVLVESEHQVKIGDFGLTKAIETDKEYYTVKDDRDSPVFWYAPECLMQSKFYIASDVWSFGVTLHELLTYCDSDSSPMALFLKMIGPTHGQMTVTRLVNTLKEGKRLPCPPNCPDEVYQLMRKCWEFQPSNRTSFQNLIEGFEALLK
- METHOD DESCRIPTION: Analysis of JAK1 activity inhibition ability (ADP-Glo Kinase Assay)
- Format: biochemical
- SETTINGS: JAK1 enzyme, ADP-Glo luminescence, ATP 250 uM, IRS-itide substrate, 30° C. 40 minutes; read-out: IC50
OBSERVED PROPERTY: IC50

Query IC50 for CC1CC1C(=O)Nc1cc(-c2ccc(CN3CCS(=O)(=O)CC3)cc2)c2cc[nH]c2n1 (stereo not shown)
< 20 nM

Query IC50 for `CCS(=O)(=O)Nc1ccc(-c2nc(NC(=O)C3CC3)nc3[nH]cnc23)cc1`
> 200 nM

Query IC50 for O=C(Nc1cc(C2CC3CCC(C2)N3C(=O)C2CC2)c2cc[nH]c2n1)C1CC1 (stereo not shown)
> 200 nM

Query IC50 for CC1CN(C(=O)c2cccnc2Cl)CC=C1c1cc(NC(=O)C2CC2)nc2[nH]ccc12 (stereo not shown)
20 to 200 nM

---

- TARGET UNDER TEST: JAK1 (Homo sapiens (Human))
- METHOD DESCRIPTION: Analysis of JAK1 activity inhibition ability (ADP-Glo Kinase Assay)
- Type: biochemical
- SETTINGS: JAK1 enzyme, ADP-Glo luminescence, ATP 250 uM, IRS-itide substrate, 30° C. 40 minutes; read-out: IC50
pIC50: −log10 of the molar value.
OBSERVED PROPERTY: pIC50

// solved cases for pIC50 follow
[[record]]
molecule = "O=C(Nc1nc(-c2ccc(NS(=O)(=O)CCCC(F)(F)F)cc2)c2cc[nH]c2n1)C1CC1"
result = "6.70 to 7.70"

[[record]]
molecule = "CCCC1C=C(c2cc(NC(=O)C3CC3)nc3[nH]ccc23)CCN1C(=O)CC#N (stereo not shown)"
result = "6.70 to 7.70"

[[record]]
molecule = "CCCS(=O)(=O)Nc1ccc(-c2cc(NC(=O)C3CC3)nc3[nH]ccc23)c(C(=O)OC)c1"
result = "< 6.70"

[[record]]
molecule = "O=C(Nc1cc(-c2ccc(NC3CCN(C(=O)c4ccncc4)CC3)cc2)c2cc[nH]c2n1)C1CC1"
result = "< 6.70"

[[record]]
molecule = "O=C(Nc1cc(-c2ccc(NC3CN(C(=O)Nc4ccc(F)cc4F)C3)cc2)c2cc[nH]c2n1)C1CC1"
result = "< 6.70"

[[record]]
molecule = "O=C(Nc1cc(-c2cnn(C3CN(S(=O)(=O)C(F)(F)F)C3)c2)c2cc[nH]c2n1)C1CC1"
result = "> 7.70"

[[record]]
molecule = "CCN(CC)S(=O)(=O)Nc1ccc(-c2cc(NC(=O)C3CC3)nc3[nH]ccc23)cc1"
result = "6.70 to 7.70"

[[record]]
molecule = "CCCS(=O)(=O)Nc1ccc(-c2cc(NC(=O)C3CC3)nc3[nH]cc(C)c23)cc1"
result = "6.70 to 7.70"


// fetch pIC50; item: `CCN(C)S(=O)(=O)Nc1ccc(-c2cc(NC(=O)C3CC3)nc3[nH]ccc23)cc1` ; system: JAK1 (Homo sapiens (Human))
> 7.70

// fetch pIC50; item: CC1CN(C(=O)c2ccc(C(C)(C)C)[nH]c2=O)CC=C1c1cc(NC(=O)C2CC2)nc2[nH]ccc12 (stereo not shown) ; system: JAK1 (Homo sapiens (Human))
< 6.70

// fetch pIC50; item: `O=C(Nc1cc(-c2ccc(NS(=O)(=O)C3CCS(=O)(=O)CC3)cc2)c2cc[nH]c2n1)C1CC1` ; system: JAK1 (Homo sapiens (Human))
> 7.70
